Molecular target: HDAC1 (Homo sapiens (Human), UniProt Q13547)
Sequence (Q13547 whole entry): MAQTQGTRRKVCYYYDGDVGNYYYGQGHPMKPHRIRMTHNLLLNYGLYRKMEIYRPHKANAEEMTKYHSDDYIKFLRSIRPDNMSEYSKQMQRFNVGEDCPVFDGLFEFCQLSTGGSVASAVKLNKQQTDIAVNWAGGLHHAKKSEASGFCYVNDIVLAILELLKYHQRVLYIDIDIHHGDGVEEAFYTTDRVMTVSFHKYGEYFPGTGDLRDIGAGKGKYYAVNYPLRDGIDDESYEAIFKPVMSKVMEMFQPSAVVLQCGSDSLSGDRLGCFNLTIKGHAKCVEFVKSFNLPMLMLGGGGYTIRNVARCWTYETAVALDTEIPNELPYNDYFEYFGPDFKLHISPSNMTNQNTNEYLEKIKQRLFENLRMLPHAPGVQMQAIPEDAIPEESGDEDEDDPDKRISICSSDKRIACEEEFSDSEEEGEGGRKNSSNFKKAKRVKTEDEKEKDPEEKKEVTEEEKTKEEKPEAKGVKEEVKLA
Conditions: read-out: HDAC1 IC50
endpoint label: pIC50
The read-out pIC50 is expressed as -log10 of concentration in moles per litre.

In the examples that follow, each entry is paired with its recorded pIC50.
compound	pIC50
Cn1nccc1COc1cc(-c2noc(C(F)(F)F)n2)ccn1	5.55
O=C(NC(Cc1ccc(-c2noc(C(F)(F)F)n2)cn1)c1cccc(C(F)(F)F)c1)c1ccccn1 (racemic)	6.06
O=C1CCC(c2ccc(-c3noc(C(F)(F)F)n3)cc2)N1c1ccccc1F (racemic) [Example 320]	6.06
Cn1ccc(CN(Cc2ccc(-c3noc(C(F)(F)F)n3)cc2)c2cccc(C(F)(F)F)c2)n1	5.62
COCc1cc(=O)n(Cc2ccc(-c3noc(C(F)(F)F)n3)cn2)c2ccccc12	6.96

query: Sample `Cn1c(OCc2ccc(-c3noc(C(F)(F)F)n3)cn2)nc2cccnc21` — what was its pIC50?
result: 6.60

query: What do we get for `CN(C(=O)[C@@H]1CCC(=O)N1c1ccc(-c2noc(C(F)(F)F)n2)c(F)c1)C(C)(C)C` ?
result: 4.51

query: What do we get for `CN(C)c1cccc(COc2cc(-c3noc(C(F)(F)F)n3)ccn2)n1` ?
result: 4.70

query: What do we get for `FC(F)(F)c1nc(-c2ccc(CNc3[nH]nc4ccccc34)nc2)no1` ?
result: 6.28

query: What do we get for `Fc1cc(COc2nnc(C3CC3)o2)ccc1-c1noc(C(F)(F)F)n1` ?
result: 5.66

query: What do we get for O=C1C(C2CCOCC2)NC[C@@H](c2cc(F)cc(F)c2)N1c1ccc(-c2noc(C(F)(F)F)n2)cn1 (stereo partly drawn) ?
result: 5.37

This collection of values is drawn from patent US11066396B2.
